Tested on: HeLa Kyoto;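 note: HeLa Kyoto cells synchronized by double thymidine or nocodazole block, proteins quantified by TMT10plex mass spectrometry, three independent biological replicates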
Test: melting temperature (median over replicates), in situ; higher = more thermally stable
Settings: cell cycle stage: mitosis
RECORDED_METRIC: melting temperature (°C)
Please state the figure in °C; there is no need to write the unit.

1. MAACRALKAVLVDLSGTLHIEDAAVPGAQEALKRLRGASVIIRFVTNTTKESKQDLLERLRKLEFDISEDEIFTSLTAARSLLERKQVRPMLLVDDRALPDFKGIQTSDPNAVVMGLAPEHFHYQILNQAFRLLLDGAPLIAIHKARYYKRKDGLALGPGPFVTALEYATDTKATVVGKPEKTFFLEALRGTGCEPEEAVMIGDDCRDDVGGAQDVGMLGILVKTGKYRASDEEKINPPPYLTCESFPHAVDHILQHLL [HDHD2] :: 59

Lab note: next sequence to report on.
melting temperature for MARLWGALSLWPLWAAVPWGGAAAVGVRACSSTAAPDGVEGPALRRSYWRHLRRLVLGPPEPPFSHVCQVGDPVLRGVAAPVERAQLGGPELQRLTQRLVQVMRRRRCVGLSAPQLGVPRQVLALELPEALCRECPPRQRALRQMEPFPLRVFVNPSLRVLDSRLVTFPEGCESVAGFLACVPRFQAVQISGLDPNGEQVVWQASGWAARIIQHEMDHLQGCLFIDKMDSRTFTNVYWMKVND [PDF] is 54.9
